B1: SNX3 (parent)
chain: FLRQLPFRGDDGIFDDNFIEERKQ

Variants of: B1
test.name: protein stability index of a GFP-peptide fusion (GPS, HEK-293T) (PSI 1-6); higher = more stable;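 note: lentivirally expressed fusions sorted by FACS into six bins by GFP to DsRed ratio, PSI derived from sequencing read proportions per bin multiplied by bin number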
details: c terminus: a fixed tail appended
For each record, write down the corresponding protein stability index.
Answers are plain numbers.

Worked cases, answers included:
// protein stability index value for `D15A` : 3.45

// protein stability index value for `P6H` : 3.1

// protein stability index value for `Q4H` : 2.94

// protein stability index value for `R3Y` : 2.28

// protein stability index value for `Q4E` : 3.85

// protein stability index value for `L5Q` : 3.72

Please go through the list and note protein stability index for each variant.
1. Q24C
2. I13S
3. D10F
4. I13T
5. E20N
6. I19K
7. L5R
8. L2T

[out]
2.57
3.8
2.62
3.48
2.92
3.62
3.99
4.04

Please go through the list and note protein stability index for each variant.
1. F18T
2. P6I

[out]
1. 3.96
2. 2.26

Please go through the list and note protein stability index for each variant.
1. E21F
2. R22E
3. F18C
4. G9P
5. L5K
6. D15V
7. I13G

[out]
1. 2.39
2. 3.73
3. 4.21
4. 3.06
5. 4.01
6. 2.65
7. 3.52

Please go through the list and note protein stability index for each variant.
1. G12W
2. P6K
3. P6E
4. G12I
5. E21W
6. G12K

[out]
1. 2.67
2. 2.88
3. 2.91
4. 2.39
5. 2.1
6. 4.03
